- assayed_target: KDM4A (Homo sapiens, UniProt O75164)
- Sequence (O75164 whole entry): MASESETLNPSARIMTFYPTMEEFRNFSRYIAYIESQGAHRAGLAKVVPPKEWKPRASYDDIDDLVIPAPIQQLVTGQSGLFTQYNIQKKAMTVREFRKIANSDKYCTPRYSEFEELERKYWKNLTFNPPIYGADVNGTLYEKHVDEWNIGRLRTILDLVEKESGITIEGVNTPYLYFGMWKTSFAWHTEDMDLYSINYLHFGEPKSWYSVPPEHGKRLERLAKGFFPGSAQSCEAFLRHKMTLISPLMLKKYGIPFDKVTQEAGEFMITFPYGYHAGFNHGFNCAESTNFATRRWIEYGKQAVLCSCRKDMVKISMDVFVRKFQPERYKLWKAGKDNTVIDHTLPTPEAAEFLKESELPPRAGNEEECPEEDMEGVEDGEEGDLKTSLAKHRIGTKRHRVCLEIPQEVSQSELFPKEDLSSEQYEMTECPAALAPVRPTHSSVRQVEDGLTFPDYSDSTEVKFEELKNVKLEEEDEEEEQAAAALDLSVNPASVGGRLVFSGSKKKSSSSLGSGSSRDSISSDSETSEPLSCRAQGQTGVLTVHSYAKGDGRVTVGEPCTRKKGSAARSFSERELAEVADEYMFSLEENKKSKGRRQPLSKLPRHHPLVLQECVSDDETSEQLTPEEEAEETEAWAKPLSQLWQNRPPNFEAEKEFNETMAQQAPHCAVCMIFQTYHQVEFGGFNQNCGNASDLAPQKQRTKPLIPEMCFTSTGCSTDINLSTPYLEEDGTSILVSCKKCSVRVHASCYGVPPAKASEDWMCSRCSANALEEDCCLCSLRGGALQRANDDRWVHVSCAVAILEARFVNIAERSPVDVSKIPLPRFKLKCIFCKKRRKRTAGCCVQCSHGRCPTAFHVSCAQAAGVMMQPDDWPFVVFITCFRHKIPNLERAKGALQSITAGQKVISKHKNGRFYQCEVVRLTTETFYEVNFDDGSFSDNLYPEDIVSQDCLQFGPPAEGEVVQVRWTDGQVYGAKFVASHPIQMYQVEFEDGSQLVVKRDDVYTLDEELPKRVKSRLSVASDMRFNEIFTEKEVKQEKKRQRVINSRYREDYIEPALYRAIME
- test_details: KDM demethylase inhibition (IC50)
- Type: biochemical
- applied_conditions: read-out: Compound I IC50
endpoint_name: IC50 (nM)
Number in nM, nothing else.

I would be grateful if you could share the reported IC50 for CN(c1ccccc1)c1ccc2c(c1)CCC[C@H]2CNc1cnccc1C(=O)O .
104

###

- assayed_target: KDM5B (Homo sapiens, UniProt Q9UGL1)
- Sequence (Q9UGL1 whole entry): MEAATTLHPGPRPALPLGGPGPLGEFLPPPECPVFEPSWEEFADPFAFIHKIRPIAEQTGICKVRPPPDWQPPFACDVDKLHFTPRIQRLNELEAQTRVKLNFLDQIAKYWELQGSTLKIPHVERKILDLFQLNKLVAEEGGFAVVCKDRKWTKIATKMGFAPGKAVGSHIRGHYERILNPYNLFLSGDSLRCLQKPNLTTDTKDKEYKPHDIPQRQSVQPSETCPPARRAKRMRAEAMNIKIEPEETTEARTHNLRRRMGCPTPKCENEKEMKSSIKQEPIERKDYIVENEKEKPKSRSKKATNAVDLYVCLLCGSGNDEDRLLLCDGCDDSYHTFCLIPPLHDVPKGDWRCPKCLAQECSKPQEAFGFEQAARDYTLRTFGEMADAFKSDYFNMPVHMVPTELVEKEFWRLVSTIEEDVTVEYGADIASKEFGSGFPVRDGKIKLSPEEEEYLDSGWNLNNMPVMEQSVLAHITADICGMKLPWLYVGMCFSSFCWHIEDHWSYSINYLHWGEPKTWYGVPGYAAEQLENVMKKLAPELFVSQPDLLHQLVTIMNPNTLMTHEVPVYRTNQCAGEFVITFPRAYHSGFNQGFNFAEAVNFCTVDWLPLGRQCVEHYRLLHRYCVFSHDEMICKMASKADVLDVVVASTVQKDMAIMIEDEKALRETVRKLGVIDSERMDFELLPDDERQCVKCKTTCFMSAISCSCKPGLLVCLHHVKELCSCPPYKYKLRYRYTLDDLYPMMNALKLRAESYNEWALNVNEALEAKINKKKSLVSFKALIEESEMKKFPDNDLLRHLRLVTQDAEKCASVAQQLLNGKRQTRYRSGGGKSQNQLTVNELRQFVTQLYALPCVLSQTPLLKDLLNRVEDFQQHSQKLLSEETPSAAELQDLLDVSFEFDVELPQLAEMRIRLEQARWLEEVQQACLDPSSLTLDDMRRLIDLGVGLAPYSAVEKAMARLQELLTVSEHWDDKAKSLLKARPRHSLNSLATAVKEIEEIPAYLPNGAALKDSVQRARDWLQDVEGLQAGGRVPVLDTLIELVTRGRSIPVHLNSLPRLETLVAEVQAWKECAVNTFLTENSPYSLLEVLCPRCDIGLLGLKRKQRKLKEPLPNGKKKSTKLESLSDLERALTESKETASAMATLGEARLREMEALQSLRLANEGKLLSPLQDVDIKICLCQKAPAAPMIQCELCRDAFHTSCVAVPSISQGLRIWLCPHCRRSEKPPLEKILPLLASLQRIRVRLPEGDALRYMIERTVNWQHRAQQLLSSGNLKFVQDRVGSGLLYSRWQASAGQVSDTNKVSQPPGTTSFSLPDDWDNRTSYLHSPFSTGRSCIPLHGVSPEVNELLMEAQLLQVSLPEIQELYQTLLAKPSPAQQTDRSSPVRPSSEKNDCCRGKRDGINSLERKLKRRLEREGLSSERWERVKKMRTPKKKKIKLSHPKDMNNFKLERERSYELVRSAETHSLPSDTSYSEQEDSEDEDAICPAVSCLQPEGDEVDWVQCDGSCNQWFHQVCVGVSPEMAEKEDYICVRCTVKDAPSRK
endpoint_name: pIC50
Reminder that pIC50 is minus the log10 of a molar concentration.

I would be grateful if you could share the reported pIC50 for CN(c1ccccc1)c1ccc2c(c1)CCC[C@H]2CNc1cnccc1C(=O)O .
6.12
